The following molecules are listed with their measured IPP screening %, Coactivator recruitment values.
System Name: Estrogen receptor, ER1 (h) (Homo sapiens)
Construct: purchased Eurofins Cerep (SafetyScreen44-based IPP panel)
Sequence (P03372 whole entry): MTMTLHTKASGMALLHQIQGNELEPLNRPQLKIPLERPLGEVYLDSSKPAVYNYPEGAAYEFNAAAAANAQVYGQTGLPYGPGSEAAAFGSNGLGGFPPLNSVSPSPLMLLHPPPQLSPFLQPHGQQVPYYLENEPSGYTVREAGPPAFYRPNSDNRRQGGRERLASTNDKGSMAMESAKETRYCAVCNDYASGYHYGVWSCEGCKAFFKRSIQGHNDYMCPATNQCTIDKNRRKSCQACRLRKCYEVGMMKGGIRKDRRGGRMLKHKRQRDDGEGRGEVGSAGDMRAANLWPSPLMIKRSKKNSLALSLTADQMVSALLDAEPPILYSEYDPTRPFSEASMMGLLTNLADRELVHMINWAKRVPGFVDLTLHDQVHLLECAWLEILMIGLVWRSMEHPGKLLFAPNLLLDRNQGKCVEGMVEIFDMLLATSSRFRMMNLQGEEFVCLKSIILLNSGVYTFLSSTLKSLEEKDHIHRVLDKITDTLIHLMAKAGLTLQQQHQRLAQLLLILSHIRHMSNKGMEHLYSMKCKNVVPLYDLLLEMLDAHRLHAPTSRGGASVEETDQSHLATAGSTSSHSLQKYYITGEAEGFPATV
Measurement Protocol: IPP ER1 coactivator recruitment (agonist)
Format: biochemical
Particulars: 10 uM, estriol
Return type: number; implicit unit %.

>  <Molecule>
O=CCCCC=O

>  <IPP screening %, Coactivator recruitment / %>
2.0

$$$$
>  <Molecule>
CC(=O)N1CCN(c2ccc(OC[C@H]3CO[C@](Cn4ccnc4)(c4ccc(Cl)cc4Cl)O3)cc2)CC1

>  <IPP screening %, Coactivator recruitment / %>
-1.0

$$$$
>  <Molecule>
CCOP(=S)(OCC)Oc1nc(Cl)c(Cl)cc1Cl

>  <IPP screening %, Coactivator recruitment / %>
-1.0

$$$$
>  <Molecule>
CC1(C)C(C=C(Cl)Cl)C1C(=O)OC(C#N)c1cccc(Oc2ccccc2)c1 (stereo not drawn)

>  <IPP screening %, Coactivator recruitment / %>
0.0

$$$$
>  <Molecule>
O=[N+]([O-])c1cc(C(F)(F)F)c(Cl)c([N+](=O)[O-])c1Nc1ncc(C(F)(F)F)cc1Cl

>  <IPP screening %, Coactivator recruitment / %>
-4.0

$$$$

Now, please, on to the next molecule.
Short answer for "CC(C)(C)c1ccc(CCOc2ncnc3ccccc23)cc1" : IPP screening %, Coactivator recruitment was -2.0

Ref: paper PMC11879040
